Tested on: MCF7
Test: Anticancer activity against human MCF7 cells assessed as reduction in cell viability at 40 uM measured after 48 hrs by CCK-8 method relative to control
Format: functional
// assign TRUE if Activity falls strictly below 10%, else FALSE (ties count as FALSE)

Asked: Is it true that Activity reported for `CC1(C)[C@H]2[C@@H]1CC[C@@]1(C)[C@H](O)CC[C@](O)(CO)[C@H]21` is less than 10%?
Given back: FALSE

Asked: Let us now turn to `CC1=C[C@@H]2[C@@H](C(C)C)CC[C@@](C)(O)[C@@H]2CC1=O`
Given back: FALSE

Asked: Let us now turn to `CC1(C)[C@H]2/C=C(/C=O)CC[C@@H]3O[C@@]3(C)CC[C@@H]21`
Given back: FALSE

Asked: Let us now turn to `CC1=C[C@H]2[C@H](C(C)C)CC[C@@](C)(O)[C@H]2C[C@H]1O`
Given back: FALSE

Asked: Let us now turn to `C[C@H]1C[C@H](O)[C@@H]2[C@H]3[C@H]1OC(C)(C)[C@@H]3CC[C@@]2(C)O`
Given back: TRUE

Asked: Let us now turn to C[C@H]1CC[C@@H]2[C@H]3[C@H]1OC(C)(C)[C@@H]3CC[C@@]2(C)O (relative stereo)
Given back: FALSE

Asked: Let us now turn to `CC1(C)[C@H]2/C=C(/CO)CC[C@@H]3O[C@@]3(C)CC[C@@H]21`
Given back: FALSE

Asked: Let us now turn to `C[C@@H]1C(=O)C[C@@H]2[C@H]3[C@H]1OC(C)(C)[C@H]3CC[C@@]2(C)O`
Given back: TRUE

----------
Listed here: items and their measured Activity.
System: RAW264.7
Test: Cytotoxicity against mouse RAW264.7 cells measured after 24hrs by CCK-8 method relative to control
Format: toxicity, cell-based
Set-up: concentration or dose not given beside the values
Conditions: raw264.7, 24 h
All answers are understood in %, so give the number only.

# example entries with known answers
| compound | Activity [%] |
| --- | --- |
| C[C@H]1CC[C@@H]2[C@H]3[C@H]1OC(C)(C)[C@@H]3CC[C@@]2(C)O (relative stereo) | 94.77 |
| CC1=C[C@@H]2[C@@H](C(C)C)CC[C@@](C)(O)[C@@H]2CC1 | 90.3 |
| C[C@H]1CC[C@@H](O)[C@]2(C)CC[C@@H](C(C)(C)O)[C@H](O)[C@@H]12 | 88.18 |
| CC1(C)[C@H]2[C@@H]1CC[C@@]1(C)[C@H](O)CC[C@](O)(CO)[C@H]21 | 81.69 |
| CC1=C[C@H]2[C@H](C(C)C)CC[C@@](C)(O)[C@H]2C[C@H]1O | 87.41 |
| CC1(C)[C@H]2/C=C(/C=O)CC[C@@H]3O[C@@]3(C)CC[C@@H]21 | 81.51 |

Asked: Given the entry `CC1=C[C@@H]2[C@@H](C(C)C)CC[C@@](C)(O)[C@@H]2CC1=O` , report its measured Activity.
Given back: 82.62

Asked: Let us now turn to `C[C@@H]1C(=O)C[C@@H]2[C@H]3[C@H]1OC(C)(C)[C@H]3CC[C@@]2(C)O`
Given back: 91.87

----------
Listed here: items and their measured MIC.
Test system: Staphylococcus capitis
Experiment: Antimicrobial activity against Staphylococcus capitis W7 assessed as reduction in microbial growth by broth microdilution method
Assay type: functional

# example entries with known answers
| structure-as-smiles | result |
| --- | --- |
| CN(C)[C@@H]1C(O)=C(C(N)=O)C(=O)[C@@]2(O)C(O)=C3C(=O)c4c(O)cccc4[C@@](C)(O)[C@H]3C[C@@H]12 | 4 µg/mL |
| C[C@@H]1C(=O)C[C@@H]2[C@H]3[C@H]1OC(C)(C)[C@H]3CC[C@@]2(C)O | > 128 µg/mL |
| C[C@H]1C[C@H](O)[C@@H]2[C@H]3[C@H]1OC(C)(C)[C@@H]3CC[C@@]2(C)O | > 128 µg/mL |

Consider now this further molecule.
Asked: Given the entry `C[C@H]1CC[C@@H](O)[C@]2(C)CC[C@@H](C(C)(C)O)[C@H](O)[C@@H]12` , report its measured MIC.
Given back: > 128 µg/mL

----------
Listed here: items and their measured Activity.
Test system: A549
Assay: Anticancer activity against human A549 cells assessed as reduction in cell viability at 40 uM measured after 48 hrs by CCK-8 method relative to control
Type: functional
All answers are understood in %, so give the number only.

| structure-as-smiles | Activity, % |
| --- | --- |
| CC1=C[C@@H]2[C@@H](C(C)C)CC[C@@](C)(O)[C@@H]2C[C@@H]1O | 0.28 |
| CC1(C)[C@H]2/C=C(/C=O)CC[C@@H]3O[C@@]3(C)CC[C@@H]21 | 2.4 |
| C[C@@H]1C(=O)C[C@@H]2[C@H]3[C@H]1OC(C)(C)[C@H]3CC[C@@]2(C)O | 0.67 |
| CC1(C)[C@H]2/C=C(/CO)CC[C@@H]3O[C@@]3(C)CC[C@@H]21 | 13 |

Asked: Given the entry `CC1=C[C@@H]2[C@@H](C(C)C)CC[C@@](C)(O)[C@@H]2CC1` , report its measured Activity.
Given back: 12.06

----------
Test system: A549
Experiment: Anticancer activity against human A549 cells assessed as reduction in cell viability at 40 uM measured after 48 hrs by CCK-8 method relative to control
Type: functional
Listed here: items and their measured Activity.
All answers are understood in %, so give the number only.

# example entries with known answers
| molecule | assayed-target | Activity, % |
| --- | --- | --- |
| C/C1=C\CC/C(C=O)=C\[C@H]2[C@H](C[C@H]1O)C2(C)C | A549 | -2.39 |
| CC1(C)[C@H]2[C@@H]1CC[C@@]1(C)[C@H](O)CC[C@](O)(CO)[C@H]21 | A549 | 0.34 |
| C[C@H]1C[C@H](O)[C@@H]2[C@H]3[C@H]1OC(C)(C)[C@@H]3CC[C@@]2(C)O | A549 | 0.07 |
| C[C@H]1CC[C@@H]2[C@H]3[C@H]1OC(C)(C)[C@@H]3CC[C@@]2(C)O (relative stereo) | A549 | 12.03 |
| CC1=C[C@@H]2[C@@H](C(C)C)CC[C@@](C)(O)[C@@H]2CC1=O | A549 | 8.55 |
| C[C@H]1CC[C@@H](O)[C@]2(C)CC[C@@H](C(C)(C)O)[C@H](O)[C@@H]12 | A549 | 0.97 |

Asked: Given the entry `C/C1=C\CC/C(CO)=C\[C@H]2[C@H](C[C@H]1O)C2(C)C` , report its measured Activity.
Given back: 7.59

Asked: Let us now turn to `CC1=C[C@H]2[C@H](C(C)C)CC[C@@](C)(O)[C@H]2C[C@H]1O`
Given back: 5.64

----------
Test system: Bacillus subtilis
Test: Antimicrobial activity against Bacillus subtilis ATCC 6051 assessed as reduction in microbial growth by broth microdilution method
Type: functional
experimental-readout: MIC

# example entries with known answers
| structure-as-smiles | assayed-target | MIC |
| --- | --- | --- |
| C[C@H]1CC[C@@H](O)[C@]2(C)CC[C@@H](C(C)(C)O)[C@H](O)[C@@H]12 | Bacillus subtilis | > 128 µg/mL |
| CC1(C)[C@H]2/C=C(/CO)CC[C@@H]3O[C@@]3(C)CC[C@@H]21 | Bacillus subtilis | > 128 µg/mL |
| CC1=C[C@@H]2[C@@H](C(C)C)CC[C@@](C)(O)[C@@H]2CC1 | Bacillus subtilis | > 128 µg/mL |

Asked: Under Bacillus subtilis: MIC value of `C[C@@H]1C(=O)C[C@@H]2[C@H]3[C@H]1OC(C)(C)[C@H]3CC[C@@]2(C)O` ?
Given back: > 128 µg/mL

----------
System: MCF7
Assay: Anticancer activity against human MCF7 cells assessed as reduction in cell viability at 40 uM measured after 48 hrs by CCK-8 method relative to control
Type: functional
experimental-readout: Activity (%)
All answers are understood in %, so give the number only.

| structure-as-smiles | experimental-readout | units-symbol | measured-number |
| --- | --- | --- | --- |
| C/C1=C\CC/C(C=O)=C\[C@H]2[C@H](C[C@H]1O)C2(C)C | Activity | % | 1.32 |
| C[C@H]1CC[C@@H](O)[C@]2(C)CC[C@@H](C(C)(C)O)[C@H](O)[C@@H]12 | Activity | % | 5.53 |

Asked: Under MCF7: Activity value of `CC1=C[C@@H]2[C@@H](C(C)C)CC[C@@](C)(O)[C@@H]2CC1` ?
Given back: 18.49

Asked: Let us now turn to `CC1=C[C@@H]2[C@@H](C(C)C)CC[C@@](C)(O)[C@@H]2C[C@@H]1O`
Given back: 6.01

Asked: Let us now turn to `C/C1=C\CC/C(CO)=C\[C@H]2[C@H](C[C@H]1O)C2(C)C`
Given back: 15.37
